Structures can show the parent of a compound that is named as a salt.
Measured IC50 on aldose-reductase (AR) (Rattus norvegicus, UniProt P07943) follows.
Report the figure in nM without appending any unit label.

Worked examples, 5 compounds total:
INSERT INTO results (compound, experimental_value) VALUES
  ('O=C(O)Cn1c(=O)n(Cc2ccc(Br)cc2F)c(=O)c2c3c(sc21)CCCC3 [Compound I-15]', 23),
  ('CC(C)c1cc2c(=O)n(Cc3ccc(Cl)c(Cl)c3)c(=O)n(CC(=O)O)c2s1 [Compound I-3]', 26),
  ('O=C(O)Cn1c(=O)n(Cc2ccc(Br)cc2F)c(=O)c2cc(C3CCCC3)sc21 [Compound I-16]', 30),
  ('CC(C)c1cc2c(=O)n(Cc3ccc(Br)cc3F)c(=O)n(CC(=O)O)c2s1 [Compound I-17]', 22),
  ('Cc1csc2c1c(=O)n(Cc1ccc(Br)cc1F)c(=O)n2CC(=O)O [Compound I-20]', 24);

Which value of IC50 has been reported for CC(C)c1cc2c(=O)n(Cc3ccc(Cl)cc3Cl)c(=O)n(CC(=O)O)c2s1 [Compound I-4] in the records?
17

Can you share its IC50? I mean this compound: O=C(O)Cn1c(=O)n(Cc2ccc(Br)cc2F)c(=O)c2cc(Cl)sc21 [I-24 (Lysine salt)]
25

I'd like to know its IC50. The compound in question is Cc1sc2c(c1C)c(=O)n(Cc1ccc(Br)cc1F)c(=O)n2CC(=O)O [Compound I-14]
21
